Data provenance: ChEMBL document CHEMBL3763100

# Study system: Glutamate receptor ionotropic, NMDA 2B (Rattus norvegicus) (UniProt Q00960)
# Sequence (Q00960 27-1482 limits assumed): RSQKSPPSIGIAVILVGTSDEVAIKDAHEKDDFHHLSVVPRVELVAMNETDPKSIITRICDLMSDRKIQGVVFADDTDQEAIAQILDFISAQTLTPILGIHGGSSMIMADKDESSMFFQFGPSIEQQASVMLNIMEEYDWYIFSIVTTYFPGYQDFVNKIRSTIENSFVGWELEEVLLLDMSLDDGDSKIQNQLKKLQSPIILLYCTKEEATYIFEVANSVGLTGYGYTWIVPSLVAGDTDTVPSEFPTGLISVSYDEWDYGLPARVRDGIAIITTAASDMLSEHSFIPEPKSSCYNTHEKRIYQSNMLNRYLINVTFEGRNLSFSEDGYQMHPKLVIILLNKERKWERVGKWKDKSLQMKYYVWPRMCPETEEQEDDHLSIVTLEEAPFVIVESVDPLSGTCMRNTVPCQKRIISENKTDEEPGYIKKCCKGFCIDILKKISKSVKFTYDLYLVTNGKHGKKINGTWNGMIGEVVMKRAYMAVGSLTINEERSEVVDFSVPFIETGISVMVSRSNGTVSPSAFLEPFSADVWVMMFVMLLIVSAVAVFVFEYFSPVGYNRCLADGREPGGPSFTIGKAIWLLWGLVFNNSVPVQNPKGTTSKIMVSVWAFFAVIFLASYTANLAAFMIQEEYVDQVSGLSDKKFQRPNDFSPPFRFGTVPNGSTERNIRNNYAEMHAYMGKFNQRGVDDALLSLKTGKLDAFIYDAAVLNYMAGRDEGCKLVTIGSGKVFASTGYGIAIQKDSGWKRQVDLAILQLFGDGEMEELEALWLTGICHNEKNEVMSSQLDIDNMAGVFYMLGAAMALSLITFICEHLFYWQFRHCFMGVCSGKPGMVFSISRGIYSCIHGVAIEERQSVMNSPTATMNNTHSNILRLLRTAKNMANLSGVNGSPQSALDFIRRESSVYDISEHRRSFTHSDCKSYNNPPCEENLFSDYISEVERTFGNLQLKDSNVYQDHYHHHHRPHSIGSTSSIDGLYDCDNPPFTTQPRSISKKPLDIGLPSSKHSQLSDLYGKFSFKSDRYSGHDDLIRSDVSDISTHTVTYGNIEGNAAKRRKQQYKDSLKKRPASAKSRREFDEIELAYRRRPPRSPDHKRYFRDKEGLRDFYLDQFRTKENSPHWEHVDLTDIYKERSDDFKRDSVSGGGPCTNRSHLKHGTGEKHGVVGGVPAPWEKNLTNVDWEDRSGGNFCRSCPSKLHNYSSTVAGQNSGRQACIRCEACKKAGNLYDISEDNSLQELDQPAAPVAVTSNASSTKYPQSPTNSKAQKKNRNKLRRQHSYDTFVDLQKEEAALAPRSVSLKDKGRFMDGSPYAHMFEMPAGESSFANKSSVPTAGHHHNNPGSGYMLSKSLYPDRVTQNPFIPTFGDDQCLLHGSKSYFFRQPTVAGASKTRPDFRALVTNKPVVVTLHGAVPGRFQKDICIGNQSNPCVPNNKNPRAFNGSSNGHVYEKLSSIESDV
# Measurement description: Displacement of [3H]ifenprodil from Wistar rat cerebral cortex GluN2B receptor at 0.1 uM after 120 mins relative to control
# Assay type: tissue-based
Examples of compounds with documented inhibition follow.
Kindly provide the numeric value in % only, without the unit symbol.

• O=C(CN1CCC(Oc2ccccc2)CC1)c1c[nH]c2ccc(O)cc12 = 9
• Cc1ccc(CC2CCN(CC(=O)c3c[nH]c4ccc(O)cc34)CC2)cc1 = 66
• O=C(Cc1c[nH]c2ccc(O)cc12)N1CCC(Cc2ccc(F)cc2)CC1 = 19
• Oc1ccc2[nH]cc(CCN3CCC(Cc4ccccc4)CC3)c2c1 = 42
• COc1ccc(CC2CCN(CC(=O)c3c[nH]c4ccc(O)cc34)CC2)cc1 = 16
• O=C(Cc1c[nH]c2ccc(O)cc12)N1CCC(Cc2ccccc2)CC1 = 5

Now consider the entry below.
The compound listed as `CCc1ccc(CC2CCN(CC(=O)c3c[nH]c4ccc(O)cc34)CC2)cc1` shows inhibition equal to 75
